Listed below: MIC values for each entry.
Tested on: Escherichia coli
Assay Protocol: Minimum inhibitory concentration against Escherichia coli Vogel
Format: functional
Recorded Conditions: Escherichia coli; read-out: MIC

Molecule: Nc1c(F)c(N2CC(N)C(c3ccccc3)C2)c(F)c2c1c(=O)c(C(=O)O)cn2C1CC1 (centres undefined)
Output Unit: µg/mL
MIC: 0.025
//
Molecule: NC1CN(c2nc3c(cc2F)c(=O)c(C(=O)O)cn3C2CC2)CC1c1ccc(O)cc1 (trans isomer)
Output Unit: µg/mL
MIC: 0.1
//
Molecule: NC1CN(c2c(F)cc3c(=O)c(C(=O)O)cn(C4CC4)c3c2F)CC1c1ccccc1 (trans isomer)
Output Unit: µg/mL
MIC: 0.025
//
Molecule: NC1CN(c2c(F)cc3c(=O)c(C(=O)O)cn(C4CC4)c3c2F)CC1c1ccc(Cl)c(Cl)c1 (trans isomer)
Output Unit: µg/mL
MIC: 0.1

---

Listed below: MIC values for each entry.
Test system: Escherichia coli
Assay Protocol: Minimum inhibitory concentration against Escherichia coli Vogel
Type: functional
Recorded Conditions: Escherichia coli; read-out: MIC

Compound: CN(C)c1ccc(C2CN(c3c(F)cc4c(=O)c(C(=O)O)cn(C5CC5)c4c3F)CC2N)cc1 (stereo not drawn)
MIC [µg/mL]: 0.2
--
Compound: COc1ccccc1C1CN(c2c(F)cc3c(=O)c(C(=O)O)cn(C4CC4)c3c2F)CC1N (trans isomer)
MIC [µg/mL]: 0.2
--
Compound: NC1CN(c2nc3c(cc2F)c(=O)c(C(=O)O)cn3C2CC2)CC1c1ccccc1 (stereo not drawn)
MIC [µg/mL]: 0.1
--
Compound: CCOC(=O)C1CC1C1CN(c2nc3c(cc2F)c(=O)c(C(=O)O)cn3C2CC2)CC1N (trans isomer)
MIC [µg/mL]: 1.6
--
Compound: NC1CN(c2nc3c(cc2F)c(=O)c(C(=O)O)cn3C2CC2)CC1c1ccc(Cl)c(Cl)c1 (trans isomer)
MIC [µg/mL]: 0.4
--
Compound: Nc1c(F)c(N2CC(N)C(c3ccc(O)cc3)C2)c(F)c2c1c(=O)c(C(=O)O)cn2C1CC1 (trans isomer)
MIC [µg/mL]: 0.05
--
Compound: NCC1CN(c2c(F)cc3c(=O)c(C(=O)O)cn(C4CC4)c3c2F)CC1c1ccco1 (stereo not drawn)
MIC [µg/mL]: 0.05
--
Compound: COC(=O)c1ccc(C2CN(c3c(F)cc4c(=O)c(C(=O)O)cn(C5CC5)c4c3F)CC2N)cc1 (stereo not drawn)
MIC [µg/mL]: 0.4

---

Tested on: Streptococcus pyogenes
Assay Protocol: Minimum inhibitory concentration against Streptococcus pyogenes C-203
Assay type: functional
Recorded Conditions: Streptococcus pyogenes; read-out: MIC
Listed below: MIC values for each entry.

Compound: NCc1cccc(C2CN(c3nc4c(cc3F)c(=O)c(C(=O)O)cn4C3CC3)CC2CN)c1 (trans isomer)
MIC: 0.2 µg/mL
//
Compound: NCC1CN(c2nc3c(cc2F)c(=O)c(C(=O)O)cn3C2CC2)CC1c1ccccc1 (trans isomer)
MIC: 0.025 µg/mL
//
Compound: Nc1c(F)c(N2CC(N)C(c3ccc(F)cc3)C2)c(F)c2c1c(=O)c(C(=O)O)cn2C1CC1 (trans isomer)
MIC: 0.1 µg/mL
//
Compound: NCc1cccc(C2CN(c3nc4c(cc3F)c(=O)c(C(=O)O)cn4C3CC3)CC2N)c1 (trans isomer)
MIC: 0.2 µg/mL
//
Compound: NCc1cccc(C2CN(c3c(F)cc4c(=O)c(C(=O)O)cn(C5CC5)c4c3F)CC2CN)c1 (trans isomer)
MIC: 0.1 µg/mL
//
Compound: NC1CN(c2nc3c(cc2F)c(=O)c(C(=O)O)cn3C2CC2)CC1c1ccccc1 (stereo not drawn)
MIC: 0.2 µg/mL
//
Compound: NC1CN(c2nc3c(cc2F)c(=O)c(C(=O)O)cn3C2CC2)CC1c1ccc(F)cc1 (trans isomer)
MIC: 0.2 µg/mL
//
Compound: NC1CN(c2nc3c(cc2F)c(=O)c(C(=O)O)cn3C2CC2)CC1c1ccc(Cl)c(Cl)c1 (trans isomer)
MIC: 0.4 µg/mL
//
Compound: Nc1ccc(C2CN(c3nc4c(cc3F)c(=O)c(C(=O)O)cn4C3CC3)CC2N)cc1 (trans isomer)
MIC: 0.2 µg/mL
//
Compound: COC(=O)c1ccc(C2CN(c3nc4c(cc3F)c(=O)c(C(=O)O)cn4C3CC3)CC2N)cc1 (trans isomer)
MIC: 0.8 µg/mL
//
Compound: Nc1ccc(C2CN(c3c(F)cc4c(=O)c(C(=O)O)cn(C5CC5)c4c3F)CC2N)cc1 (trans isomer)
MIC: 0.1 µg/mL
//
Compound: CN(C)c1ccc(C2CN(c3nc4c(cc3F)c(=O)c(C(=O)O)cn4C3CC3)CC2N)cc1 (trans isomer)
MIC: 0.2 µg/mL
//
Compound: NC1CN(c2c(F)cc3c(=O)c(C(=O)O)cn(C4CC4)c3c2F)CC1c1ccc(O)cc1 (trans isomer)
MIC: 0.1 µg/mL
//
Compound: CCOC(=O)C1CC1C1CN(c2cc3c(cc2F)c(=O)c(C(=O)O)cn3C2CC2)CC1N (trans isomer)
MIC: 0.8 µg/mL
//
Compound: NCC1CN(c2nc3c(cc2F)c(=O)c(C(=O)O)cn3C2CC2)CC1c1ccc(N)cc1 (cis isomer)
MIC: 0.05 µg/mL
//
Compound: NC1CN(c2nc3c(cc2F)c(=O)c(C(=O)O)cn3C2CC2)CC1c1ccc(O)cc1 (trans isomer)
MIC: 0.2 µg/mL
//
Compound: NC1CN(c2c(F)cc3c(=O)c(C(=O)O)cn(C4CC4)c3c2F)CC1c1ccc(Cl)c(Cl)c1 (trans isomer)
MIC: 0.1 µg/mL
//
Compound: NCC1CN(c2c(F)c(N)c3c(=O)c(C(=O)O)cn(C4CC4)c3c2F)CC1c1ccc(N)cc1 (trans isomer)
MIC: 0.025 µg/mL
//
Compound: COC(=O)c1ccc(C2CN(c3c(F)cc4c(=O)c(C(=O)O)cn(C5CC5)c4c3F)CC2N)cc1 (stereo not drawn)
MIC: 0.4 µg/mL
//
Compound: NCC1CN(c2c(F)cc3c(=O)c(C(=O)O)cn(C4CC4)c3c2F)CC1c1ccccc1 (trans isomer)
MIC: 0.013 µg/mL
//
Compound: CC(C)c1ccc(C2CN(c3c(F)cc4c(=O)c(C(=O)O)cn(C5CC5)c4c3F)CC2N)cc1 (trans isomer)
MIC: 0.2 µg/mL
//
Compound: COc1ccccc1C1CN(c2c(F)cc3c(=O)c(C(=O)O)cn(C4CC4)c3c2F)CC1N (trans isomer)
MIC: 0.1 µg/mL
//
Compound: COc1ccc(C2CN(c3nc4c(cc3F)c(=O)c(C(=O)O)cn4C3CC3)CC2N)cc1 (trans isomer)
MIC: 0.1 µg/mL
//
Compound: NCC1CN(c2nc3c(cc2F)c(=O)c(C(=O)O)cn3C2CC2)CC1c1ccco1 (trans isomer)
MIC: 0.05 µg/mL
//
Compound: NC1CN(c2c(F)cc3c(=O)c(C(=O)O)cn(C4CC4)c3c2F)CC1c1ccccc1 (trans isomer)
MIC: 0.1 µg/mL
//
Compound: NC1CN(c2c(F)cc3c(=O)c(C(=O)O)cn(C4CC4)c3c2F)CC1c1ccc(F)cc1 (trans isomer)
MIC: 0.1 µg/mL
//
Compound: CN(C)c1ccc(C2CN(c3c(F)cc4c(=O)c(C(=O)O)cn(C5CC5)c4c3F)CC2N)cc1 (stereo not drawn)
MIC: 0.1 µg/mL
//
Compound: Nc1c(F)c(N2CC(N)C(c3ccc(O)cc3)C2)c(F)c2c1c(=O)c(C(=O)O)cn2C1CC1 (trans isomer)
MIC: 0.1 µg/mL
